tested on: IL-33; assay: Cytokine release after LPS induction on human whole blood: IL-33; assay type: cell-based; settings: human whole blood, inhibition of LPS induced inflammation; read-out: IC50 IL-33
Reported Metric: pIC50
The meaning of pIC50 here: minus log10 of the concentration in molar units.

Which measured pIC50 value corresponds to O=C(O)Cc1cc(O)c(C(=O)Nc2c(C(=O)O)cccc2C(=O)O)cc1O [IIIa-013a] ?
5.95

Which measured pIC50 value corresponds to O=C(O)c1cc(O)c(CN(Cc2cc(O)c(C(=O)O)cc2O)Cc2cc(O)c(C(=O)O)cc2O)cc1O [IIIc-061a] ?
6.51

Which measured pIC50 value corresponds to O=C(O)c1cc(O)c(C(=O)Nc2ccccc2C(=O)O)cc1O [Ia-001a] ?
4.71

Which measured pIC50 value corresponds to O=C(O)c1cc(NC(=O)c2cc(O)c(C(=O)O)cc2O)cc(NC(=O)c2cc(O)c(C(=O)O)cc2O)c1 [Ib-010a] ?
4.50

====

Exercise: for every item that follows, state its recorded Disease Score (kidney, H&E).
system: STZ-induced diabetes model; assay: STZ-induced diabetic nephropathy, kidney disease and retinopathy model (28 days treatment); conditions: day 28 of treatment (week 9); 15 mg/kg IV, Captopril 50 mg/kg PO
Keep it simple and answer with nothing but the number.

Which measured Disease Score (kidney, H&E) value corresponds to O=C(O)c1cc(O)cc(CS(=O)(=O)Cc2cc(O)cc(C(=O)O)c2O)c1O [IVc-059a] ?
7

Which measured Disease Score (kidney, H&E) value corresponds to O=C(O)c1cc(O)c(C(=O)Nc2ccccc2-c2nnn[nH]2)cc1O [Ia-001a-Tz] ?
8

Which measured Disease Score (kidney, H&E) value corresponds to O=C(O)c1cc(O)c(CN(Cc2cc(O)c(C(=O)O)cc2O)Cc2cc(O)c(C(=O)O)cc2O)cc1O [IIIc-061a] ?
8

Which measured Disease Score (kidney, H&E) value corresponds to O=C(O)c1cc(NC(=O)c2cc(O)c(C(=O)O)cc2O)cc(NC(=O)c2cc(O)c(C(=O)O)cc2O)c1 [Ib-010a] ?
6

Which measured Disease Score (kidney, H&E) value corresponds to O=C(O)c1cc(NC(=O)c2cc(O)c(C(=O)Nc3ccc(O)c(C(=O)O)c3)cc2O)ccc1O [Ic-007a] ?
7

Which measured Disease Score (kidney, H&E) value corresponds to C[C@H](CS)C(=O)N1CCC[C@H]1C(=O)O [Captopril, reference compound] ?
6

Which measured Disease Score (kidney, H&E) value corresponds to O=C(O)c1cc(NC(=O)c2cc(O)c(C(=O)Nc3ccccc3-c3nnn[nH]3)cc2O)ccc1O [Ic-001a-Tz/004a] ?
9

Which measured Disease Score (kidney, H&E) value corresponds to O=C(O)c1cc(O)c(C(=O)Nc2ccccc2C(=O)O)cc1O [Ia-001a] ?
7

====

System: IL-33
Experiment: Cytokine release after LPS induction on human whole blood: IL-33
Format: cell-based
Conditions: Homo sapiens; LPS 10 ng/ml, 18 h; read-out: Whole Blood: IL-33 IC50
Method: Aim of this in vitro method is to assess compounds effects on release of a panel of cytokines from whole blood following lipopolysaccharide (LPS) induced inflammatory reaction. Whole blood was incubated with compounds for 1 h prior to LPS induction. Cytokine levels in blood were measured using a multiplex FACS-based panel. IC50 values determined for the tested compounds expressed in microM [μM] and the values for the inhibition of cytokines were listed for each compound. […]
Exercise: for every item that follows, state its recorded pIC50.
The meaning of pIC50 here: minus log10 of the concentration in molar units.

Write down the reported pIC50 of O=C(O)c1ccccc1CNC(=O)c1cc(O)cc(C(=O)O)c1O [IIa-053a] , test system: IL-33.
4.92

Write down the reported pIC50 of O=C(O)c1cc(O)ccc1NC(=O)c1cc(O)cc(C(=O)Nc2ccc(O)cc2C(=O)O)c1O [IIc-009a] , test system: IL-33.
6.54

Write down the reported pIC50 of O=C(O)c1cc(NC(=O)c2cc(O)c(C(=O)Nc3ccc(O)c(C(=O)O)c3)cc2O)ccc1O [Ic-007a] , test system: IL-33.
4.74

====

test system: IL-33; experiment: Cytokine release after LPS induction on human whole blood: IL-33; assay type: cell-based; details: Homo sapiens; LPS 10 ng/ml, 18 h; read-out: Whole Blood: IL-33 IC50
Could you please mark rule met for values of IC50 below 20 µM and rule not met for values at or above it?

Strictly below 20 µM: is that where IC50 of O=C(O)c1cc(O)cc(CS(=O)(=O)Cc2cc(O)cc(C(=O)O)c2O)c1O [IVc-059a] sits?
rule not met

Strictly below 20 µM: is that where IC50 of O=C(O)c1cc(NC(=O)c2cc(O)cc(C(=O)Nc3ccc(O)c(C(=O)O)c3)c2O)ccc1O [IIc-007a] sits?
rule met

Strictly below 20 µM: is that where IC50 of O=C(O)c1cc(O)c(C(=O)Nc2ccccc2C(=O)O)cc1O [Ia-001a] sits?
rule met

Strictly below 20 µM: is that where IC50 of O=C(O)Cc1cc(O)c(C(=O)Nc2c(C(=O)O)cccc2C(=O)O)cc1O [IIIa-013a] sits?
rule met

Strictly below 20 µM: is that where IC50 of O=C(O)Cc1cc(O)c(C(=O)Nc2ccccc2-c2nnn[nH]2)cc1O [IIIa-001aTz] sits?
rule met

Strictly below 20 µM: is that where IC50 of O=C(O)c1cc(O)c(C(=O)Nc2ccccc2-c2nnn[nH]2)cc1O [Ia-001a-Tz] sits?
rule not met

Strictly below 20 µM: is that where IC50 of O=C(O)c1cc(O)c(C(=O)Nc2ccc(-c3nnn[nH]3)cc2)cc1O [Ia-003a-Tz] sits?
rule not met

====

test: physchem; conditions: water
Reported Metric: solubility (µg/mL)
Dear colleague, please return just the value in µg/mL, with no unit written.

Which measured solubility value corresponds to O=C(O)c1cc(NC(=O)c2cc(O)cc(C(=O)Nc3ccc(O)c(C(=O)O)c3)c2O)ccc1O [IIc-007a] ?
1800

====

Exercise: for every item that follows, state its recorded IC50.
tested on: IL-10; experiment: Cytokine release after LPS induction on human whole blood: IL-10; format: cell-based; conditions: human whole blood, inhibition of LPS induced inflammation; read-out: IC50 IL-10
Dear colleague, please return just the value in µM, with no unit written.

Which measured IC50 value corresponds to O=C(O)c1cc(NC(=O)c2cc(O)c(C(=O)O)cc2O)cc(C(=O)O)c1 [Ia-015a] ?
5.27

Which measured IC50 value corresponds to O=C(O)c1cc(O)c(C(=O)Nc2ccccc2S(=O)(=O)O)cc1O [Ia-001c] ?
1.9

Which measured IC50 value corresponds to O=C(O)c1cc(O)ccc1NC(=O)c1cc(O)cc(C(=O)Nc2ccc(O)cc2C(=O)O)c1O [IIc-009a] ?
11.3

Which measured IC50 value corresponds to O=C(O)c1cc(NC(=O)c2cc(O)c(C(=O)Nc3ccc(O)c(C(=O)O)c3)cc2O)ccc1O [Ic-007a] ?
12.5

Which measured IC50 value corresponds to O=C(O)c1cc(O)c(C(=O)Nc2ccccc2C(=O)O)cc1O [Ia-001a] ?
100

Which measured IC50 value corresponds to O=C(O)Cc1cc(O)c(C(=O)Nc2c(C(=O)O)cccc2C(=O)O)cc1O [IIIa-013a] ?
37.3

Which measured IC50 value corresponds to O=C(O)c1cc(O)cc(CS(=O)(=O)Cc2cc(O)cc(C(=O)O)c2O)c1O [IVc-059a] ?
1.31

Which measured IC50 value corresponds to CCOC(=O)c1cc(NC(=O)c2cc(O)c(C(=O)OCC)cc2O)cc(NC(=O)c2cc(O)c(C(=O)OCC)cc2O)c1 [Ib-010a-E3] ?
100

Which measured IC50 value corresponds to CC(=O)N(Cc1cc(O)c(C(=O)O)cc1O)Cc1cc(O)c(C(=O)O)cc1O [IIIc-057a] ?
100

Which measured IC50 value corresponds to O=C(O)c1cc(NC(=O)c2cc(O)cc(C(=O)Nc3ccc(O)c(C(=O)O)c3)c2O)ccc1O [IIc-007a] ?
17.9

====

system: IL-21; experiment: Cytokine release after LPS induction on human whole blood: IL-21; type: cell-based; conditions: Homo sapiens, read-out: IC50 IL-21
Reported Metric: pIC50
The meaning of pIC50 here: minus log10 of the concentration in molar units.

Which measured pIC50 value corresponds to O=C(O)c1cc(NC(=O)c2cc(O)c(C(=O)Nc3ccccc3-c3nnn[nH]3)cc2O)ccc1O [Ic-001a-Tz/004a] ?
6.52

====

Exercise: for every item that follows, state its recorded IC50.
test system: IL-17A; experiment: Cytokine release after LPS induction on human whole blood: IL-17A; format: cell-based; conditions: human whole blood, inhibition of LPS induced inflammation; read-out: IC50 IL-17A
Dear colleague, please return just the value in nM, with no unit written.

Which measured IC50 value corresponds to O=C(O)Cc1cc(O)c(C(=O)Nc2c(C(=O)O)cccc2C(=O)O)cc1O [IIIa-013a] ?
150

Which measured IC50 value corresponds to O=C(O)c1cc(NC(=O)c2cc(O)c(C(=O)O)cc2O)cc(NC(=O)c2cc(O)c(C(=O)O)cc2O)c1 [Ib-010a] ?
420

Which measured IC50 value corresponds to O=C(O)c1cc(O)ccc1NC(=O)c1cc(O)cc(C(=O)Nc2ccc(O)cc2C(=O)O)c1O [IIc-009a] ?
1

Which measured IC50 value corresponds to O=C(O)c1cc(O)c(CN(Cc2cc(O)c(C(=O)O)cc2O)Cc2cc(O)c(C(=O)O)cc2O)cc1O [IIIc-061a] ?
40

// data source = patent US20230150951A1
